# method.summary: Ratio of apparent permeability from basolateral to apical over apical to basolateral side of human Caco-2 cell membrane
assay.metric: efflux ratio
Answer as a number with no unit attached.

Illustrative cases are given below, each with its answer.
| compound | result.value |
| --- | --- |
| COc1cc2c(cc1OC)CN(CCCC1=CCCc3cc(OC)c(OC)cc31)CC2 | 1.5 |
| COc1cccc2c1CCCC2CCCN1CCN(C2CCCCC2)CC1 (stereo not drawn) | 1.7 |
| COc1cc2c(cc1OC)CN(CCCC1CCCc3cc(OC)c(OC)cc31)CC2 (stereo not drawn) | 5.1 |
| COc1ccc2c(c1)C(CCCN1CCc3cc(OC)c(OC)cc3C1)CCC2 (stereo not drawn) | 3.7 |
| COc1cc2c(cc1OC)CN(CCC=C1CCCCC1)CC2 | 3.1 |

## Task Bench note: what efflux ratio did COc1ccc2c(c1)CCCC2CCCN1CCc2cc(OC)c(OC)cc2C1 (stereo not drawn) show?
## Result 4.2

## Task Bench note: what efflux ratio did "COc1ccc2c(c1)/C(=C/CCN1CCc3cc(OC)c(OC)cc3C1)CCC2" show?
## Result 3.9

## Task Bench note: what efflux ratio did "COc1cc2c(cc1OC)CN(CC/C=C1\CCCc3c(OC)cccc31)CC2" show?
## Result 1.6

## Task Bench note: what efflux ratio did "COc1ccc2c(c1)CCC=C2CCCN1CCc2cc(OC)c(OC)cc2C1" show?
## Result 3.7

## Task Bench note: what efflux ratio did COc1cc2c(cc1OC)CN(CCCC1CCCc3c(OC)cccc31)CC2 (stereo not drawn) show?
## Result 18

## Task Bench note: what efflux ratio did "COc1cc2c(cc1OC)CN(CCCC1=CCCc3c(OC)cccc31)CC2" show?
## Result 7.1

## Task Bench note: what efflux ratio did "COc1cccc2c1CCC/C2=C\CCN1CCCCC1" show?
## Result 4.4

## Task Bench note: what efflux ratio did "COc1ccc2c(c1)C(CCCN1CCc3cc(OC)c(OC)cc3C1)=CCC2" show?
## Result 5.4

###

# system.tested: ATP-dependent translocase ABCB1 (Homo sapiens, UniProt P08183)
# Sequence (P08183 whole entry): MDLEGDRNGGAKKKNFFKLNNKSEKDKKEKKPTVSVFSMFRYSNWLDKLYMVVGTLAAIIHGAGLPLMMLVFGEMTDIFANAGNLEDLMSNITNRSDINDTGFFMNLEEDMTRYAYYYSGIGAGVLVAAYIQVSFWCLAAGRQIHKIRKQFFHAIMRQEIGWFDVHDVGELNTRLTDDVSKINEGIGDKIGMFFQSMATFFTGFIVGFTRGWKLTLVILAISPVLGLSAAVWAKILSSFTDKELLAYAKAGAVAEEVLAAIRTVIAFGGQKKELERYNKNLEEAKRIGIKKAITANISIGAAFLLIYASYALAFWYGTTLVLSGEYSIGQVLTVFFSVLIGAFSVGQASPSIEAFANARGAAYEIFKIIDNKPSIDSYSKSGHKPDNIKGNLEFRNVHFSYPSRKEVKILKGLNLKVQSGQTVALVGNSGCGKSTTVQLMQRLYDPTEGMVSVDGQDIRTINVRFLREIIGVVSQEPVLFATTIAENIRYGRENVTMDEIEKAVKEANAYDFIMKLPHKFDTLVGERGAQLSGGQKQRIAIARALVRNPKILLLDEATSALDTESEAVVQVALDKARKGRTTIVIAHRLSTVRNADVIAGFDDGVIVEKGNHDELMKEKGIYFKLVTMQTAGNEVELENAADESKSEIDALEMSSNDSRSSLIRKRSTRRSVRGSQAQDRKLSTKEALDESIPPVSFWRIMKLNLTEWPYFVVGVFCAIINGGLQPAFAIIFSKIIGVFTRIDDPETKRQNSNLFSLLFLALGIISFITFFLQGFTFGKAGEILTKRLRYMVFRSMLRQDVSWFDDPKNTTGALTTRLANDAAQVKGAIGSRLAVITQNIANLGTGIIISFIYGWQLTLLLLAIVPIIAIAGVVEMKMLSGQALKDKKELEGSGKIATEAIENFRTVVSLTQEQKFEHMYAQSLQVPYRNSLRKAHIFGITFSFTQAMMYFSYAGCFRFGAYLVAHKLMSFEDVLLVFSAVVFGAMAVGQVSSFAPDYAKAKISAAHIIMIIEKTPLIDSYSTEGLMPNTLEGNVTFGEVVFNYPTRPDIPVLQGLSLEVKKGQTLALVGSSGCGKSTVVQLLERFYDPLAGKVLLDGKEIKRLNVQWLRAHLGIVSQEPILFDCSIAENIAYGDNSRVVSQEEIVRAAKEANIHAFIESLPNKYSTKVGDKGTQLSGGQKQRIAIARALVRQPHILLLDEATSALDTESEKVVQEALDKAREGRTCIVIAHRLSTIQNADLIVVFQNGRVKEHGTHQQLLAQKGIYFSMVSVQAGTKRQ
# method.summary: Inhibition of human Pgp mediated [3H]vinblastine transport in human Caco-2 cells
Entries are grouped by EC50 into these classes: lo = under 8 µM, med = from 8 µM up to 20 µM, hi = 20 µM and over

# count of solved cases: 5
| molecule | assigned.category |
| --- | --- |
| COc1ccc2c(c1)C(CCCN1CCc3cc(OC)c(OC)cc3C1)=CCC2 | hi |
| COc1cc2c(cc1OC)CN(CCC=C1CCCCC1)CC2 | med |
| COc1cc2c(cc1OC)CN(CCCC1CCCc3cc(OC)c(OC)cc31)CC2 (stereo not drawn) | med |
| COc1cc2c(cc1OC)CN(CC/C=C1\CCCc3c(OC)cccc31)CC2 | lo |
| COc1cc2c(cc1OC)CN(CCCC1CCCc3c(OC)cccc31)CC2 (stereo not drawn) | lo |

## Task Given "COc1cc2c(cc1OC)CN(CCCC1=CCCc3c(OC)cccc31)CC2" , name the class its EC50 places it in.
## Result med

## Task Given COc1cccc2c1CCCC2CCCN1CCN(C2CCCCC2)CC1 (stereo not drawn) , name the class its EC50 places it in.
## Result lo

## Task Given "COc1ccc2c(c1)/C(=C/CCN1CCc3cc(OC)c(OC)cc3C1)CCC2" , name the class its EC50 places it in.
## Result lo

## Task Given "COc1cc2c(cc1OC)CN(CCCC1=CCCc3cc(OC)c(OC)cc31)CC2" , name the class its EC50 places it in.
## Result hi

## Task Given COc1ccc2c(c1)C(CCCN1CCc3cc(OC)c(OC)cc3C1)CCC2 (stereo not drawn) , name the class its EC50 places it in.
## Result med

## Task Given "COc1ccc2c(c1)CCC=C2CCCN1CCc2cc(OC)c(OC)cc2C1" , name the class its EC50 places it in.
## Result hi

###

# system.tested: ATP-dependent translocase ABCB1 (Homo sapiens, UniProt P08183)
# method.summary: Activation of human Pgp ATPase in human Caco-2 cells at 100 uM
# Format: cell-based
# condition.set: caco-2, 100 µM
// Activity lookup, one value per entry
Note: unit % is implicit; provide only the numeric part.

Illustrative cases are given below, each with its answer.
| compound | assay.metric | result.value |
| --- | --- | --- |
| COc1ccc2c(c1)C(CCCN1CCc3cc(OC)c(OC)cc3C1)=CCC2 | Activity | 20 |
| COc1cc2c(cc1OC)CN(CCCC1CCCc3c(OC)cccc31)CC2 (configuration not stated) | Activity | 70 |
| COc1cc2c(cc1OC)CN(CCCC1CCCc3cc(OC)c(OC)cc31)CC2 (configuration not stated) | Activity | 62 |
| COc1cc2c(cc1OC)CN(CCCC1=CCCc3c(OC)cccc31)CC2 | Activity | 30 |
| COc1ccc2c(c1)CCCC2CCCN1CCc2cc(OC)c(OC)cc2C1 (configuration not stated) | Activity | 27 |

## Task Bench note: what Activity did COc1ccc2c(c1)C(CCCN1CCc3cc(OC)c(OC)cc3C1)CCC2 (configuration not stated) show?
## Result 15

## Task Bench note: what Activity did "COc1cc2c(cc1OC)CN(CCCC1=CCCc3cc(OC)c(OC)cc31)CC2" show?
## Result 15

###

// Papp A→B lookup, one value per entry
# method.summary: Apparent permeability from apical to basolateral side of human Caco-2 cell membrane
# Type: ADME, cell-based
Note: unit ×10⁻⁶ cm/s is implicit; provide only the numeric part.

Illustrative cases are given below, each with its answer.
| compound | result.value |
| --- | --- |
| COc1cccc2c1CCC/C2=C\CCN1CCCCC1 | 58.4 |
| COc1cc2c(cc1OC)CN(CC/C=C1\CCCc3c(OC)cccc31)CC2 | 23.7 |
| COc1ccc2c(c1)C(CCCN1CCc3cc(OC)c(OC)cc3C1)=CCC2 | 61 |
| COc1cc2c(cc1OC)CN(CCCC1=CCCc3cc(OC)c(OC)cc31)CC2 | 67.2 |
| COc1ccc2c(c1)/C(=C/CCN1CCc3cc(OC)c(OC)cc3C1)CCC2 | 166 |

## Task Bench note: what Papp A→B did "COc1cc2c(cc1OC)CN(CCCC1=CCCc3c(OC)cccc31)CC2" show?
## Result 16

## Task Bench note: what Papp A→B did COc1ccc2c(c1)C(CCCN1CCc3cc(OC)c(OC)cc3C1)CCC2 (stereo not drawn) show?
## Result 46

## Task Bench note: what Papp A→B did COc1cc2c(cc1OC)CN(CCCC1CCCc3cc(OC)c(OC)cc31)CC2 (stereo not drawn) show?
## Result 86.8

## Task Bench note: what Papp A→B did "COc1ccc2c(c1)CCC=C2CCCN1CCc2cc(OC)c(OC)cc2C1" show?
## Result 40.7

## Task Bench note: what Papp A→B did COc1ccc2c(c1)CCCC2CCCN1CCc2cc(OC)c(OC)cc2C1 (stereo not drawn) show?
## Result 82.8

## Task Bench note: what Papp A→B did COc1cccc2c1CCCC2CCCN1CCN(C2CCCCC2)CC1 (stereo not drawn) show?
## Result 250

## Task Bench note: what Papp A→B did "COc1cc2c(cc1OC)CN(CCC=C1CCCCC1)CC2" show?
## Result 77.4

## Task Bench note: what Papp A→B did COc1cc2c(cc1OC)CN(CCCC1CCCc3c(OC)cccc31)CC2 (stereo not drawn) show?
## Result 5.6

###

# method.summary: Apparent permeability from basolateral to apical side of human Caco-2 cell membrane
# Type: ADME, cell-based
// Papp B→A lookup, one value per entry
Note: unit ×10⁻⁶ cm/s is implicit; provide only the numeric part.

## Task Bench note: what Papp B→A did "COc1ccc2c(c1)CCC=C2CCCN1CCc2cc(OC)c(OC)cc2C1" show?
## Result 151

###

# method.summary: Apparent permeability from basolateral to apical side of human Caco-2 cell membrane
# Type: ADME, cell-based
// Papp B→A lookup, one value per entry
Note: unit ×10⁻⁶ cm/s is implicit; provide only the numeric part.

Illustrative cases are given below, each with its answer.
| molecule | assay.metric | result.value |
| --- | --- | --- |
| COc1cc2c(cc1OC)CN(CCCC1CCCc3cc(OC)c(OC)cc31)CC2 (stereo unspecified) | Papp B→A | 440 |
| COc1cc2c(cc1OC)CN(CCC=C1CCCCC1)CC2 | Papp B→A | 240 |
| COc1ccc2c(c1)C(CCCN1CCc3cc(OC)c(OC)cc3C1)=CCC2 | Papp B→A | 332 |

## Task Bench note: what Papp B→A did "COc1ccc2c(c1)/C(=C/CCN1CCc3cc(OC)c(OC)cc3C1)CCC2" show?
## Result 657

## Task Bench note: what Papp B→A did "COc1cc2c(cc1OC)CN(CCCC1=CCCc3cc(OC)c(OC)cc31)CC2" show?
## Result 103

## Task Bench note: what Papp B→A did COc1cccc2c1CCCC2CCCN1CCN(C2CCCCC2)CC1 (stereo unspecified) show?
## Result 436

Attribution: ChEMBL document CHEMBL1143871
